Catalogue of neutralization IC50 readings, one per entry.
- TARGET SYSTEM: Env of HIV-1 strain 3415.v1.c1 (HIV-1)
- PROTOCOL NOTES: cell-based or functional assay

| BINDER | neutralization IC50 |
| --- | --- |
| γ3κ18 (antibody, V domains shown) VH: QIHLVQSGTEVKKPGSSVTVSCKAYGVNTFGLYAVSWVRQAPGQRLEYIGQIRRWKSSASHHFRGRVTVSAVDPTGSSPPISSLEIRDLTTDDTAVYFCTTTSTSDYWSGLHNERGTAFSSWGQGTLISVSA VL: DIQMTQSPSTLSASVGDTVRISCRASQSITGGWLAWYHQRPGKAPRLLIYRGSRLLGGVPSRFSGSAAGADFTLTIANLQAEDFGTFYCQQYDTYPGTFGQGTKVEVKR | > 15 µg/mL |
| γ22κ5 (antibody, V domains shown) VH: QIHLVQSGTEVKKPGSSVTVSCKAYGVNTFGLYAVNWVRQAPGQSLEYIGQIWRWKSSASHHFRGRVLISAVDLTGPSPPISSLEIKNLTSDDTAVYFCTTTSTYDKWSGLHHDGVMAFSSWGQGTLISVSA VL: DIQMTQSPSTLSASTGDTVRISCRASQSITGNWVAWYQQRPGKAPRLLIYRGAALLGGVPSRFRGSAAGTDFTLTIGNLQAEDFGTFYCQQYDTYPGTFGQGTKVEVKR | > 15 µg/mL |
| γ22κ3 (antibody, V domains shown) VH: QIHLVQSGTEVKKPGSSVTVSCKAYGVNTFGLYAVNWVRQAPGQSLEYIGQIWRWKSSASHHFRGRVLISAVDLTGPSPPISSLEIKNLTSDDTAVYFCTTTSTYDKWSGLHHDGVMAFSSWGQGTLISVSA VL: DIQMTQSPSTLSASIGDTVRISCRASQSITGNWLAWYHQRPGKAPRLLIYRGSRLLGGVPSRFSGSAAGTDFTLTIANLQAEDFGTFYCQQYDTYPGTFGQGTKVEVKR | > 15 µg/mL |

All figures here come from patent US20180171001A1.
